Target: dopamine transporter (DAT) (Homo sapiens, UniProt Q01959)
Construct: host or cells: CHO cells (membrane preparation)
Sequence (Q01959 whole entry): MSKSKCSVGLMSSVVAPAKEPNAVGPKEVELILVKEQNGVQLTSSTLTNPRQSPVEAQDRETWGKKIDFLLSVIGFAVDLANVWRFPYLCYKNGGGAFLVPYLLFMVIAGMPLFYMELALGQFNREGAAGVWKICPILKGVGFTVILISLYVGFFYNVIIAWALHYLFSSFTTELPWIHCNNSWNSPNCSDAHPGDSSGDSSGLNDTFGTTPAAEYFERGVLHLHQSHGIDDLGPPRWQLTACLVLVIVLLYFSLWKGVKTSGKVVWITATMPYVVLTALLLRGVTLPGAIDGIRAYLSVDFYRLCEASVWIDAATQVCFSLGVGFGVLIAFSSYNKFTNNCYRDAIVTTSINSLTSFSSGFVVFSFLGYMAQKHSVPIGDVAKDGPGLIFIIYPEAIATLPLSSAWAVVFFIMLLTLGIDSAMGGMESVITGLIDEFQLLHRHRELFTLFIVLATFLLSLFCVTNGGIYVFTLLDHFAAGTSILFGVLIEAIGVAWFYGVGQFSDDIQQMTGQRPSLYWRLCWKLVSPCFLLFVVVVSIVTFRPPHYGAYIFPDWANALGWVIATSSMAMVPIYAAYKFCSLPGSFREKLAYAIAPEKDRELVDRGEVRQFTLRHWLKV
Assay: Eurofins Cerep competition binding assay at dopamine transporter
Details: 10 μM test ligand, [3H]BTCP, recombinant transporter from CHO cells
Below is a list of entries, each paired with its recorded DAT, percent of control-specific binding value.
Record the result as number plus unit.

Worked examples follow.
COc1cc(CC(C)N)c(OC)cc1Br (stereo not drawn) [DOB]; 3%
CCOc1c(OC)cc(CCN)cc1OC [escaline]; 0%

Ask: Report DAT, percent of control-specific binding for CNC(C)Cc1ccc2c(c1)OCO2 (stereo not drawn) [MDMA]
Reply: 28%
